experiment: Selectivity index, ratio of IC50 for rat L6 cells to IC50 for bloodstream form of Trypanosoma brucei 221; format: toxicity, cell-based; conditions: read-out: Ratio IC50
selectivity ratio overview
measured-property: selectivity ratio

- compound: "COc1cc2c(cc1OC)C(=O)C(CC1CCN(CCNc3c4c(nc5ccccc35)CCCC4)CC1)C2 (centres undefined)"
  measured-value: "< 7.3"
- compound: "CC1=CC2Cc3nc4ccccc4c(NCCCCCCCCCCCCNc4c5c(nc6ccccc46)CCCC5)c3C(C1)C2 (centres undefined)"
  measured-value: "< 4.8"
- compound: "COc1cc2c(cc1OC)C(=O)C(CC1CCN(CCCNc3c4c(nc5ccccc35)CCCC4)CC1)C2 (centres undefined)"
  measured-value: "< 3.6"
- compound: "CC1=CC2Cc3nc4cc(Cl)ccc4c(NCCCCCCCNc4c5c(nc6ccccc46)CCCC5)c3C(C1)C2 (centres undefined)"
  measured-value: "< 4.2"

###

selectivity ratio overview
experiment: Selectivity index, ratio of IC50 for rat L6 cells to IC50 for chloroquine-resistant Plasmodium falciparum K1; format: toxicity, cell-based; details: read-out: Ratio IC50
measured-property: selectivity ratio

- compound: "COc1cc2c(cc1OC)C(=O)C(CC1CCN(CCNc3c4c(nc5cc(Cl)ccc35)CCCC4)CC1)C2 (stereo unspecified)"
  measured-value: "< 0.62"
- compound: "CC1=CC2Cc3nc4ccccc4c(NCCCCCCCCCCNc4c5c(nc6cc(Cl)ccc46)CCCC5)c3C(C1)C2 (stereo unspecified)"
  measured-value: 0.25
- compound: "CC1=CC2Cc3nc4cc(Cl)ccc4c(NCCCN(C)CCCNc4c5c(nc6cc(Cl)ccc46)CCCC5)c3C(C1)C2 (stereo unspecified)"
  measured-value: "< 1.9"
- compound: "CC1=CC2Cc3nc4cc(Cl)ccc4c(NCCCCCCCCCCCCNc4c5c(nc6ccccc46)CCCC5)c3C(C1)C2 (stereo unspecified)"
  measured-value: "< 0.15"
- compound: "CCC1=C[C@@H]2Cc3nc4cc(Cl)ccc4c(NCCCN4CCC(CC5Cc6cc(OC)c(OC)cc6C5)CC4)c3[C@H](C1)C2"
  measured-value: 2.7
- compound: "CCC1=C[C@@H]2Cc3nc4cc(Cl)ccc4c(NCCN4CCC(CC5Cc6cc(OC)c(OC)cc6C5)CC4)c3[C@H](C1)C2"
  measured-value: "< 0.89"

###

IC90 overview
tested on: Trypanosoma brucei; assay: Trypanocidal activity against bloodstream form of Trypanosoma brucei 221 assessed as inhibition of parasite growth at pH 7.4 after 48 hrs by Spectramax plate reader analysis; type: functional, organism-based; conditions: Trypanosoma brucei, 221, 48 h
measured-property: IC90 (nM)

- molecule: "CC1=C[C@@H]2Cc3nc4cc(Cl)ccc4c(NCCCCCCCNc4c5c(nc6ccccc46)CCCC5)c3[C@H](C1)C2"
  measured-property: "IC90"
  measured-value: 490
- molecule: "CCC1=C[C@@H]2Cc3nc4cc(Cl)ccc4c(NCCN4CCC(CC5Cc6cc(OC)c(OC)cc6C5)CC4)c3[C@H](C1)C2"
  measured-property: "IC90"
  measured-value: 720
- molecule: "CC1=CC2Cc3nc4cc(Cl)ccc4c(NCCCCCCCCCCCCNc4c5c(nc6ccccc46)CCCC5)c3C(C1)C2 (stereo not given)"
  measured-property: "IC90"
  measured-value: 520
- molecule: "CC1=CC2Cc3nc4cc(Cl)ccc4c(NCCCCCCCCCCNc4c5c(nc6cc(Cl)ccc46)CCCC5)c3C(C1)C2 (stereo not given)"
  measured-property: "IC90"
  measured-value: 490
- molecule: "CC1=CC2Cc3nc4cc(Cl)ccc4c(NCCCCCCCNc4c5c(nc6ccccc46)CCCC5)c3C(C1)C2 (stereo not given)"
  measured-property: "IC90"
  measured-value: 430
- molecule: "COc1cc2c(cc1OC)C(=O)C(CC1CCN(CCNc3c4c(nc5cc(Cl)ccc35)CCCC4)CC1)C2 (stereo not given)"
  measured-property: "IC90"
  measured-value: 680
- molecule: "COc1cc2c(cc1OC)CC(CC1CCN(CCNc3c4c(nc5cc(Cl)ccc35)CCCC4)CC1)C2"
  measured-property: "IC90"
  measured-value: 2390
- molecule: "COc1cc2c(cc1OC)C(=O)C(CC1CCN(CCCNc3c4c(nc5ccccc35)CCCC4)CC1)C2 (stereo not given)"
  measured-property: "IC90"
  measured-value: 620
- molecule: "CC1=CC2Cc3nc4cc(Cl)ccc4c(NCCCCCCCNc4c5c(nc6cc(Cl)ccc46)CCCC5)c3C(C1)C2 (stereo not given)"
  measured-property: "IC90"
  measured-value: 430
- molecule: "COc1cc2c(cc1OC)CC(CC1CCN(CCNc3c4c(nc5cc(Cl)ccc35)CC3C=C(C)CC4C3)CC1)C2 (stereo not given)"
  measured-property: "IC90"
  measured-value: 1180
- molecule: "CC1=CC2Cc3nc4cc(Cl)ccc4c(NCCCCCCNc4c5c(nc6ccccc46)CCCC5)c3C(C1)C2 (stereo not given)"
  measured-property: "IC90"
  measured-value: 660
- molecule: "CC1=CC2Cc3nc4cc(Cl)ccc4c(NCCCN(C)CCCNc4c5c(nc6ccccc46)CCCC5)c3C(C1)C2 (stereo not given)"
  measured-property: "IC90"
  measured-value: 450
- molecule: "CC1=CC2Cc3nc4cc(Cl)ccc4c(NCCCN(C)CCCNc4c5c(nc6cc(Cl)ccc46)CCCC5)c3C(C1)C2 (stereo not given)"
  measured-property: "IC90"
  measured-value: 400
- molecule: "CC1=CC2Cc3nc4ccccc4c(NCCCCCCCCCCNc4c5c(nc6cc(Cl)ccc46)CCCC5)c3C(C1)C2 (stereo not given)"
  measured-property: "IC90"
  measured-value: 430
- molecule: "CC1=CC2Cc3nc4cc(Cl)ccc4c(NCCCCCCCCCCNc4c5c(nc6ccccc46)CCCC5)c3C(C1)C2 (stereo not given)"
  measured-property: "IC90"
  measured-value: 480
